Origin of values: PubChem BioAssay AID1963861

Tested on: 885724-159-R-J1-PDC KRAS PDC multicell spheroid viability;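 further: spheroids exposed to agents for 7 days before readout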
Procedure Summary: Anticancer human tumor 885724-159-R-J1-PDC patient-derived pancreatic adenocarcinoma cell line growth inhibition [KRAS2]
Condition Label: second compound 0.1 µM; first compound 0.01 µM; stronger effect = lower value
Measurement Label: viability, T/C (%)

molecule="CC(=O)Nc1cccc(-n2c(=O)n(C3CC3)c(=O)c3c(Nc4ccc(I)cc4F)n(C)c(=O)c(C)c32)c1 + CC1OCC2(CCN(c3cnc(Sc4ccnc(N)c4Cl)c(N)n3)CC2)C1N" measurement_label="viability, T/C" numeric_readout=24.1
molecule="CC(C)n1nc(-c2ccc3oc(N)nc3c2)c2c(N)ncnc21 + CNCc1ccccc1-c1csc(C(C)Nc2nc(C)nc3cc(OC)c(OC)cc23)c1" measurement_label="viability, T/C" numeric_readout=65
molecule="Cn1ncnc1[C@H]1c2n[nH]c(=O)c3cc(F)cc(c23)N[C@@H]1c1ccc(F)cc1 + CNCc1ccccc1-c1csc(C(C)Nc2nc(C)nc3cc(OC)c(OC)cc23)c1" measurement_label="viability, T/C" numeric_readout=99.5
molecule="CCN1CCN(Cc2ccc(Nc3ncc(F)c(-c4cc(F)c5nc(C)n(C(C)C)c5c4)n3)nc2)CC1 + C=CC(=O)N1CCN(c2nc(OCC3CCCN3C)nc3c2CCN(c2cccc4cccc(C)c24)C3)CC1CC#N" measurement_label="viability, T/C" numeric_readout=93.6
molecule="Cn1ncnc1[C@H]1c2n[nH]c(=O)c3cc(F)cc(c23)N[C@@H]1c1ccc(F)cc1 + CC1OCC2(CCN(c3cnc(Sc4ccnc(N)c4Cl)c(N)n3)CC2)C1N" measurement_label="viability, T/C" numeric_readout=87.9
molecule="CCN1CCN(Cc2ccc(Nc3ncc(F)c(-c4cc(F)c5nc(C)n(C(C)C)c5c4)n3)nc2)CC1 + COc1cc2nc(C)nc(NC(C)c3cc(N)cc(C(F)(F)F)c3)c2cc1OC1CCOC1" measurement_label="viability, T/C" numeric_readout=89.7
